Observed pKi, system UniProt:P28335.
Sequence (P28335 whole entry): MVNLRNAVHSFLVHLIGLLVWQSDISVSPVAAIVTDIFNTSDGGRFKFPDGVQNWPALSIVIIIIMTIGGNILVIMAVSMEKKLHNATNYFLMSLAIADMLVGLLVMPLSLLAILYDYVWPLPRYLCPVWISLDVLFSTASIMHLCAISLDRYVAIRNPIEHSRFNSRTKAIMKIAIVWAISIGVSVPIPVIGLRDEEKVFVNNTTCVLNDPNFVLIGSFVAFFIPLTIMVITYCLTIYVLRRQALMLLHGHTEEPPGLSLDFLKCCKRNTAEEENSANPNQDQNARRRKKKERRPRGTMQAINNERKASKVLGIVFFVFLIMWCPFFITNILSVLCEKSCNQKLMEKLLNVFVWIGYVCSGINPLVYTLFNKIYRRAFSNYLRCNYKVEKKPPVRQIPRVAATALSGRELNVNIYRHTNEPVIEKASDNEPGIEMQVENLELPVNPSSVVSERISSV
Answers are plain numbers, as −log10 of the molar value.

- substance_smiles: "Clc1ccc(-c2n[nH]c3c2CCNCC3)cc1"
  property: "pKi"
  endpoint_result: 6.10
- substance_smiles: "Cc1ccc(-c2n[nH]c3c2CCNCC3)cc1"
  property: "pKi"
  endpoint_result: 6.53

Turning to the following compound.
Which value of pKi has been reported for "Fc1ccc(-c2n[nH]c3c2CCNCC3)cc1" in the records? 6.70

====

Target: CYP2C19 (Homo sapiens)
Sequence (P33261 whole entry): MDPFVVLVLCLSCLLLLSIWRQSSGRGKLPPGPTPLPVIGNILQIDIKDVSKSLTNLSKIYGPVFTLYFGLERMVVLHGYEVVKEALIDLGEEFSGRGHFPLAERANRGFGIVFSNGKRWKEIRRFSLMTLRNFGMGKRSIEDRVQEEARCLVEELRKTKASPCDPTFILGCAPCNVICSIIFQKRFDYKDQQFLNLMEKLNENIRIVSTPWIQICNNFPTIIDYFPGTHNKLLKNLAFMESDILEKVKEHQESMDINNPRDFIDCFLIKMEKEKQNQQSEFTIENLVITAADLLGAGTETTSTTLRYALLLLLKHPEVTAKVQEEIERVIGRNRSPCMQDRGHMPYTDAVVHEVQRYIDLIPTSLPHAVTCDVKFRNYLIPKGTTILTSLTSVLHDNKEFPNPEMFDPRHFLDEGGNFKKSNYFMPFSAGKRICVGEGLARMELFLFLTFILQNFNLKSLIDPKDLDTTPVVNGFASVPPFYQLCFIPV
Assay: Inhibition of CYP2C19 in human liver microsomes assessed as remaining activity at 10 uM using S-mephenytoin as substrate preincubated for 5 mins followed by addition of NADPH generating system measured after 15 mins by LC-MS analysis
Type: ADME
Details: probe S-mephenytoin, read-out: Activity
property: activity at 0.25 h, 10 µM

# value lookup — system CYP2C19 (Homo sapiens), readout activity at 0.25 h, 10 µM, item "Clc1ccc(-c2n[nH]c3c2CCNCC3)cc1" > 100%
